system: MCF7; test: Cytotoxicity against human MCF7 cells after 48 hrs by MTT assay; format: functional, cell-based; conditions: MCF7, 48 h
Provide the reported IC50 of each item.

[[record]]
compound = "COc1cc([C@@H]2c3cc4c(cc3[C@@H](O[C@@H]3O[C@@H]5CO[C@@H](C)O[C@H]5[C@H](O)[C@H]3O)[C@H]3COC(=O)[C@H]23)OCO4)cc(OC)c1O [ETOPOSIDE]"
result_value = "11.9 µg/mL"

[[record]]
compound = "COc1ccc(C2=NO[C@@H]3[C@H](CO)C[C@H](CO)[C@H]23)cc1OC"
result_value = "> 50 µg/mL"

[[record]]
compound = "COC(=O)[C@H]1C[C@@H](C(=O)OC)[C@H]2ON=C(c3ccccc3Cl)[C@H]21"
result_value = "> 50 µg/mL"

[[record]]
compound = "N#Cc1ccc(C2=NO[C@H]3[C@@H]2[C@@H](C(=O)O)C[C@H]3C(=O)O)cc1"
result_value = "> 50 µg/mL"

[[record]]
compound = "COc1ccc(C2=NO[C@H]3[C@@H]2[C@@H](C(=O)O)C[C@H]3C(=O)O)cc1OC"
result_value = "> 50 µg/mL"

[[record]]
compound = "O=C(O)[C@H]1C[C@@H](C(=O)O)[C@H]2ON=C(c3ccc(Cl)cc3)[C@H]21"
result_value = "28.5 µg/mL"


In: Looking for the measured IC50 of N#Cc1ccc(C2=NO[C@@H]3[C@H](CO)C[C@H](CO)[C@H]23)cc1 , can you help?
Out: > 50 µg/mL

The values you see were collected from ChEMBL document CHEMBL3739426.
